Source of measurements: PubChem BioAssay AID1996

Please go through the items and note down their solubility kinetic.
# study conditions: buffer; pH 7.4; 200.0 µM

**Q:** Query: solubility kinetic; subject: Cc1ccc(NC(=O)C2C3CCC(O3)C2C(=O)O)cc1Cl (stereo not given)
**A:** 27.8 µg/mL

**Q:** Query: solubility kinetic; subject: Clc1cccc(C2NCc3ccccc3-n3cccc32)c1 (stereo not given)
**A:** 3.5 µg/mL

**Q:** Query: solubility kinetic; subject: CN(C)S(=O)(=O)c1cccc(NC(=O)CCCC2CCCCC2)c1
**A:** 8.2 µg/mL

**Q:** Query: solubility kinetic; subject: CC1Cc2ccccc2N1S(=O)(=O)c1cccc(C(=O)OCC(=O)N2CCOCC2)c1 (stereo not given)
**A:** > 66.7 µg/mL

**Q:** Query: solubility kinetic; subject: CC(C)CCN1CCN(Cc2ccc(C(F)(F)F)cc2)CC1CCO (stereo not given)
**A:** > 53.8 µg/mL
